- Test system: LOX IMVI melanoma
- assay-procedure: NCI-60 one-dose screen, 48 h
- details: 10 µM unless noted
This is part of a sample that, as a whole, favours compounds with a hit. Of some 83,000 tested, about 20% had one in any assay. Calls of active or inactive are those of the source. The calls were made as follows: active = growth percent below 10; inactive = the rest.
Return exactly one item of true (1) (active), false (0) (inactive)

Q: Fill in: this test's call for Clc1ccc(N/N=C(\c2ccccc2)c2ccccn2)nc1 is ___
Ans: true (1)

Q: Fill in: this test's call for C#CCCCCCCC[C@@H]1OC(=O)[C@H]([C@@H](C)CC)NC(=O)[C@H]([C@@H](C)CC)NC(=O)CC(=O)[C@@H]1C is ___
Ans: false (0)

Q: Fill in: this test's call for CC(=O)Nc1nc(C)c(C(=O)NNS(=O)(=O)c2ccccc2)s1 is ___
Ans: false (0)

Q: Fill in: this test's call for CCCCCCCCCC[N+](C)(C)C is ___
Ans: true (1)

Q: Fill in: this test's call for O=C1C(=O)c2ccccc2C(O)=C1CCCc1ccc(Oc2ccccc2)cc1 is ___
Ans: false (0)

Q: Fill in: this test's call for Cc1c(O)c(N=Nc2ccc(C(=O)O)c(O)c2)c2ccccc2c1O is ___
Ans: false (0)

Q: Fill in: this test's call for CCOC(=O)C1=NN(c2ccccc2)C2=NC(=O)/C(=C\c3cn(-c4ccccc4)nc3-c3cc4ccccc4o3)C(=O)N12 is ___
Ans: false (0)

Q: Fill in: this test's call for C/C(=C\c1ccc2ccccc2c1)[N+](=O)[O-] is ___
Ans: true (1)

Q: Fill in: this test's call for O=C(O)/C(Br)=C/c1c[nH]c2ccc(Br)cc12 is ___
Ans: false (0)

Q: Fill in: this test's call for CCCC(CCC)Oc1ccc(CCCC2=C(O)c3ccccc3C(=O)C2=O)cc1 is ___
Ans: true (1)

Q: Fill in: this test's call for CC1=C(C)C[C@]2(C(=O)O[C@H]3CCCC[C@@H]32)[S@](=O)C1 is ___
Ans: false (0)

Q: Fill in: this test's call for CCOC(=O)c1c(C)oc2ncnc(Nc3ccc(C(=O)NCCc4ccccc4)cc3)c12 is ___
Ans: false (0)

Q: Fill in: this test's call for C=CCN(C)C is ___
Ans: false (0)

Q: Fill in: this test's call for CC(=O)Nc1nc(C)c(C(=O)N/N=C/N2CCCCC2)s1 is ___
Ans: false (0)

Q: Fill in: this test's call for O=C(O)c1ccc(Br)nc1 is ___
Ans: false (0)

Q: Fill in: this test's call for Nc1cc(N)c2nc(NCCc3ccc(Cl)c(Cl)c3)cnc2c1 is ___
Ans: false (0)

Q: Fill in: this test's call for CC1(C)N=C(N)N=C(N)N1c1cccc(CCCCOc2ccccc2)c1 is ___
Ans: false (0)

Q: Fill in: this test's call for CCC1(CC)C(OC)NC(Br)=C(C#N)C1(C#N)C(N)=O (stereo not drawn) is ___
Ans: false (0)

Q: Fill in: this test's call for O=C(Oc1ccccc1)c1ccccc1Cl is ___
Ans: false (0)

Q: Fill in: this test's call for COCn1c(C(=O)OC)cc2oc(/C=C3/SC(=S)N(N)C3=O)cc21 is ___
Ans: false (0)

Q: Fill in: this test's call for N#CCc1ncc(-c2ccc(C(F)(F)F)cc2)c(NC2CCCCCC2)n1 is ___
Ans: false (0)

Q: Fill in: this test's call for COc1cc(-c2nn(-c3ccc(NC(=O)c4ccc(Cl)c(C(F)(F)F)c4)cc3)cc2-c2ccncc2)ccc1Cl is ___
Ans: false (0)

Q: Fill in: this test's call for OCCN1CCCN(CCCN2c3ccccc3Sc3ccc(C(F)(F)F)cc32)CC1 is ___
Ans: false (0)

The reported measurements were obtained from PubChem BioAssay (NCI).
